# Procedure Text: Approximate solubility at 25° C. and 50° C. (visual)
# Format: physicochemical
# Experimental Context: heptane, 50 °C, organic solvent or mixture, thermodynamic from solid, Heptane, 50° C.; read-out: Solubility
# Description: About 5 mg of Compound 1 Form A was weighed to a 2 mL glass vial. 20 μL aliquots of each solvent were added to dissolve the drug substance at 25° C. About 10 mg of Compound 1 Form A was weighed to a 2 mL glass vial. 20 μL aliquots of each solvent were added to dissolve the drug substance at 50° C. […] Approximate solubility was determined by visual observation. About 5 mg of Compound 1 Form B was weighed to a 2 mL glass vial. […] Approximate solubility was determined by visual observation.
Measured Quantity: solubility

For record CCN(C)S(=O)(=O)Nc1ccc(F)c(Oc2ccc3ncn([C@H]4COC5(CCN(C(=O)CC6(O)CCN(c7cc8c(cc7F)c(N7CCC(=O)NC7=O)nn8C)CC6)CC5)C4)c(=O)c3c2)c1C#N [Compound 1 Form A] the listed solubility is < 10000 µg/mL
